# TGT: human recombinant adrenergic α2B receptor (Homo sapiens, UniProt P18089)
# Construct: expressed in transfected cells; host or cells: CHO-K1
# Sequence (P18089 whole entry): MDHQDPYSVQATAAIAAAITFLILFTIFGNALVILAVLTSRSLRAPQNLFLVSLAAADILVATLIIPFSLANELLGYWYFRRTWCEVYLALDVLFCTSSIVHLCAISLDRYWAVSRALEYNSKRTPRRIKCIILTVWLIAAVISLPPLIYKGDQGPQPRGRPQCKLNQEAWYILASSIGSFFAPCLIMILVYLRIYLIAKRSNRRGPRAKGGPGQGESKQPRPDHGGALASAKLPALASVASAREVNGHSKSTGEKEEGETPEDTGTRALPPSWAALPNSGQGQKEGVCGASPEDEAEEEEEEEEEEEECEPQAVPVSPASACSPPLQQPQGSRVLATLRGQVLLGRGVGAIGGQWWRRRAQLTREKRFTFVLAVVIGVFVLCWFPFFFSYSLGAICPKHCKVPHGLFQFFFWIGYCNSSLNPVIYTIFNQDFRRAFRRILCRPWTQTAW
# PROCEDURE SUMMARY: Radioligand binding, adrenergic α2B ([3H]Rauwolscine)
# TEST CONTEXT: read-out: Ki α2B
EXPERIMENTAL READOUT: Ki (nM)

>>> reading("Cc1ccc2c(c1)c1c(n2CC(O)c2ccc(C(N)=O)cc2)CCN(C)C1 (stereo not drawn) [compound 139]")
8.12
>>> reading("Cc1ccc2c(c1)c1c(n2CCc2cccnc2)CCN(C)C1 [compound 61]")
5.89
>>> reading("Cc1ccc2c(c1)c1c(n2CC(O)c2cnn(C)c2)CCN(C)C1 (single isomer, unassigned) [131b]")
7.95

====

# TGT: rat adrenergic α1B receptor (Rattus norvegicus, UniProt P15823)
# Construct: rat adrenergic α1B receptor obtained from Wistar Rat liver; from tissue; host or cells: Wistar rat liver
# Sequence (P15823 1-515): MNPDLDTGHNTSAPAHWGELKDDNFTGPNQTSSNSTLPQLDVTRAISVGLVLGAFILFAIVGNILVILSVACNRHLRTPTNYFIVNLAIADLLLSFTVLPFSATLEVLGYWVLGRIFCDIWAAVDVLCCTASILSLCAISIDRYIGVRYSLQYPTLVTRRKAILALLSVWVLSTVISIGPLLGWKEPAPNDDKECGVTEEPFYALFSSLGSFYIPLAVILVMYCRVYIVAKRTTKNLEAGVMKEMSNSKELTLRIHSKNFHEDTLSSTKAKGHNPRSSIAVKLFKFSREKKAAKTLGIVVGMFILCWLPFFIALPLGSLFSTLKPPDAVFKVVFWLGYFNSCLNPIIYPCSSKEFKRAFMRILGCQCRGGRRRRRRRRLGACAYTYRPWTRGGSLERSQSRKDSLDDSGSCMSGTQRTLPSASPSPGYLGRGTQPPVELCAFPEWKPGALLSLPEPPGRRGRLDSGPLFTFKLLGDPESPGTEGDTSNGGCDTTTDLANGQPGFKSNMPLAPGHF
# PROCEDURE SUMMARY: Radioligand binding, adrenergic α1B ([3H]Prazosin)
# TEST CONTEXT: compound at 0.1 μM; [3H]Prazosin; repeat assays, each datapoint shown; read-out: Percentage inhibition of ligand binding, Adrenergic α1B
EXPERIMENTAL READOUT: inhibition at 0.1 µM (%)

>>> reading("OC(Cn1c2c(c3cc(Cl)ccc31)CNCC2)c1ccncc1 (single isomer, unassigned) [10a]")
30

[P] C/C(=C\n1c2c(c3cc(C)cnc31)CN(C)CC2)c1ccc(C)nc1
[Q] Cc1ccc2c(c1)c1c(n2CCc2ccccn2)CCN(C)C1
[R] CN1CCc2c(c3cccc(Cl)c3n2CC(O)c2ccncc2)C1 (single isomer, unassigned) [45a]
Sort low-to-high on inhibition at 0.1 µM, please. Provide your answer as the labels ordered per the instruction.
P, R, Q

====

# TGT: human recombinant adrenergic α2B receptor (Homo sapiens, UniProt P18089)
# Construct: expressed in transfected cells; host or cells: CHO-K1
# PROCEDURE SUMMARY: Radioligand binding, adrenergic α2B ([3H]Rauwolscine)
# TEST CONTEXT: 0.1 μM compound; read-out: Percentage inhibition of ligand binding, Adrenergic α2B
EXPERIMENTAL READOUT: inhibition at 0.1 µM (%)

>>> reading("C/C(=C\\n1c2c(c3cc(C)ccc31)CN(C)CC2)c1ccc2[nH]cnc2c1")
101
>>> reading("C/C=C(/c1ccccc1)n1c2c(c3cc(C)ccc31)CN(C)CC2")
74
>>> reading("C/C(=C/n1c2c(c3cc(C)ccc31)CN(C)CC2)c1ccc(C)s1")
97

====

# TGT: rat adrenergic α1B receptor (Rattus norvegicus)
# Construct: rat adrenergic α1B receptor obtained from Wistar Rat liver; from tissue; host or cells: Wistar rat liver
# Sequence (P15823 1-515): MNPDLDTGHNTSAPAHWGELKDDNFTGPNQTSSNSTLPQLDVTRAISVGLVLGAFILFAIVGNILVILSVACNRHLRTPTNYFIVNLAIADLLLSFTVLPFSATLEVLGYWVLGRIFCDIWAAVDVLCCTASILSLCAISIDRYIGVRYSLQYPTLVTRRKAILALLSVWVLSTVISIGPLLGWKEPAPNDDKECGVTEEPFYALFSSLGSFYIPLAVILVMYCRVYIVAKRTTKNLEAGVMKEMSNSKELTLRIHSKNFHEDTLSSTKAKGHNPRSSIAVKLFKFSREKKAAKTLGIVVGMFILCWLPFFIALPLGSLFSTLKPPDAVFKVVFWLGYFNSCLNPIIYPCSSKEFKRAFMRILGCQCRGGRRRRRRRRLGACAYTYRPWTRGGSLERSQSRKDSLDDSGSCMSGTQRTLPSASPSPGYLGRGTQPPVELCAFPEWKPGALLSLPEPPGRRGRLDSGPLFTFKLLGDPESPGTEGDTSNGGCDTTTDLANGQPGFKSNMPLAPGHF
# PROCEDURE SUMMARY: Radioligand binding, adrenergic α1B ([3H]Prazosin)
# TEST CONTEXT: read-out: Percentage inhibition of ligand binding, Adrenergic α1B (0.1 μM), compound at 0.1 μM; [3H]Prazosin; repeat datapoints each shown
# Procedure: To evaluate in radioligand binding assays the activity of compounds of the invention, rat adrenergic α1B receptor obtained from Wistar Rat liver (Garcia-S'ainz, J. et al, Biochem. Biophys. Res. Commun. 186:760, 1992; Michel, A. et al, Br. J. Pharmacol. 98:883, 1989) in a modified Tris-HCl buffer (50 mM Tris-HCl buffer, pH 7.4, 0.5 mM EDTA) was used. […] Receptor proteins were filtered and washed, the filters were then counted to determine [^3H]Prazosin specifically bound. […]
EXPERIMENTAL READOUT: inhibition at 0.1 µM (%)

>>> reading("Cc1ccc2c(c1)c1c(n2CCc2ccc(CO)nc2)CCN(C)C1")
58

[1] C=C(Cn1c2c(c3cc(C)ccc31)CN(C)CC2)c1cccnc1
[2] Cc1ccc(C(O)Cn2c3c(c4cc(C)ccc42)CN(C)CC3)cc1 (stereo not drawn) [183a]
Which record shows the lower inhibition at 0.1 µM: the first, 1 , or the second, 2 ? Identify your selection by its label.
1
(1: 28%, 2: 77%)

====

# TGT: human recombinant adrenergic α2B receptor (Homo sapiens, UniProt P18089)
# Construct: expressed in transfected cells; host or cells: CHO-K1
# PROCEDURE SUMMARY: Radioligand binding, adrenergic α2B ([3H]Rauwolscine)
# TEST CONTEXT: compound at 0.03 μM; [3H]Rauwolscine; repeat datapoints each shown; 0.03 µM
EXPERIMENTAL READOUT: Percentage inhibition of ligand binding, Adrenergic α2B (0.03 μM) (%)

Illustrative cases are given below, each with its answer.
>>> reading("Cc1cc(C)c2c(c1)c1c(n2CC(O)c2ccncc2)CCN2CCCC12 (single isomer, unassigned) [II-125d]")
88
>>> reading("C/C(=C\\n1c2c(c3cc(C)ccc31)C1CCCCN1CC2)c1ccc(F)cc1 (single isomer, unassigned) [199a]")
94
>>> reading("Cc1ccc2c(c1)c1c(n2CC(C)(OCC(=O)O)c2cccnc2)CCN(C)C1 (single isomer, unassigned) [V-14a]")
7
>>> reading("Cc1cnc2c(c1)c1c(n2CC(C)(O)c2ccc(C)nc2)CCN2CCCC12 (single isomer, unassigned) [148d]")
11
>>> reading("Cc1ccc2c(c1)c1c(n2CC(CC(O)C(C)(C)C)c2ccncc2)CCN(C)C1 (single isomer, unassigned) [II-227a]")
86

[A] Cc1cnc2c(c1)c1c(n2CC(O)c2ccncc2)CCN2CCCC12 (single isomer, unassigned) [IV-209b]
[B] Cc1ccc2c(c1)c1c(n2CC(OC(=O)CCC(=O)O)c2ccncc2)CCN2CCCC12 (single isomer, unassigned) [V-18b]
Lab notebook, comparison: A versus B , higher Percentage inhibition of ligand binding, Adrenergic α2B (0.03 μM) goes to which? Identify your selection by its label.
B

====

# TGT: human recombinant adrenergic α2B receptor (Homo sapiens)
# Construct: expressed in transfected cells; host or cells: CHO-K1
# PROCEDURE SUMMARY: Radioligand binding, adrenergic α2B ([3H]Rauwolscine)
# TEST CONTEXT: 0.1 μM compound; read-out: Percentage inhibition of ligand binding, Adrenergic α2B
EXPERIMENTAL READOUT: inhibition at 0.1 µM (%)

>>> reading("C/C(=C\\n1c2c(c3cc(C)ccc31)CN(C)CC2)C1CCCCC1")
84
>>> reading("Cc1ccc2c(c1)c1c(n2/C=C/c2cccc3cnccc23)CCN(C)C1")
45
>>> reading("Cc1ccc(C#Cn2c3c(c4cc(C)ccc42)CN(C)CC3)nc1")
93
>>> reading("C/C(=C/n1c2c(c3cc(C)ccc31)CCN(C)CC2)c1cccc(F)c1")
98
>>> reading("CCCc1ccc(/C(C)=C/n2c3c(c4cc(C)ccc42)CN(C)CC3)cn1")
104
>>> reading("C/C(=C/n1c2c(c3cc(C)ccc31)CN(C)CC2)c1ccc(F)cc1F")
99

[I] C/C(=C/n1c2c(c3cc(C)ccc31)CN(C)CC2)c1ccc(F)nc1
[II] Cc1ccc2c(c1)c1c(n2CCc2cnc3ccccc3c2)CCN(C)C1
Which record shows the lower inhibition at 0.1 µM: the first, I , or the second, II ? Identify your selection by its label.
II
(II: 18%, I: 101%)

[A] C/C(=C\n1c2c(c3cc(C)ccc31)CN(C)CC2)c1ccc(F)nc1
[B] Cc1ccc2c(c1)c1c(n2CCc2cccc(N(C)C)c2)CCN(C)C1
[C] Cc1ccc(CCn2c3c(c4c(Cl)ccc(Cl)c42)CN(C)CC3)cn1
[D] Cc1cc(-c2sccc2C)c2c(c1)c1c(n2CCc2ccc(C)nc2)CCN(C)C1
Could you please sort these 4 entries by inhibition at 0.1 µM from high to low? Provide your answer as the labels ordered per the instruction.
A, B, D, C
(A: 95%, B: 51%, D: -4%, C: -6%)
